Provenance of the data: PubChem BioAssay AID449762

test: M. tuberculosis growth inhibition, HTS (AID 449762);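 also: bacterial growth assessed after seven days of incubation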; details: M. tuberculosis H37Rv growth inhibition, 7H9 media; at 25 µM; hits give high values
Hit rate of the full screen: of about 330,000 compounds, about 1,900 (0.58%) were called active. Another 4% or so got no clear call; they are omitted. The list is a sample of the results. Potency and affinity values are given separately.
Quantity measured: inhibition (%)
Give just the number in %; leave the unit off.

So, COc1cc(C(=S)N2CCOCC2)ccc1OC(=O)/C=C/c1ccco1 ? Its inhibition was 5.25

So, Cc1cc(C)c(OCC(=O)OCC(=O)NC2CCCCCCC2)c(C)c1 ? Its inhibition was -6.93

So, O=C(CCN1C(=O)/C(=C/C=C/c2ccccc2)SC1=S)Nc1ccccn1 ? Its inhibition was -4.47

So, COc1ccc(N(CC(=O)Nc2ccc(C)cc2C)S(=O)(=O)c2c(C)n[nH]c2C)cc1 ? Its inhibition was 6.74

So, Cc1ccc(C)c(NC(=O)CN(C)C(=O)[C@@H](NC(N)=O)C(C)C)c1 ? Its inhibition was 1.17

So, Cc1cc(OCCCCOc2ccc(S(N)(=O)=O)c(C)c2)ccc1S(N)(=O)=O ? Its inhibition was 20.1

So, CN(C)c1cccc(/C=C(\C#N)c2ccccc2)c1 ? Its inhibition was 11.4

So, Cc1cc(C)c(C#N)c(SCCS(=O)(=O)c2ccc(C(C)(C)C)cc2)n1 ? Its inhibition was 1.43

So, COc1ccc(N(CC(=O)Nc2ccc(Cl)cc2)S(=O)(=O)c2c(C)n[nH]c2C)cc1 ? Its inhibition was 2.17

So, O=C(O)c1cnn(-c2nc(-c3cccc(F)c3)cs2)c1C(F)(F)F ? Its inhibition was -9.37

So, C[C@H](Cc1ccccc1)Nc1ncnc2c1ncn2[C@@H]1O[C@H](CO)[C@@H](O)[C@H]1O ? Its inhibition was -4.76

So, COc1ccc(N(CC(=O)Nc2ccccc2C(=O)O)S(=O)(=O)c2ccc(C)c([N+](=O)[O-])c2)cc1 ? Its inhibition was -2.79

So, Cc1ccc(/C=C2\SC(=S)N(CCCC(=O)Nc3ccccn3)C2=O)cc1 ? Its inhibition was 0.58

So, Cc1c(Cl)cccc1NC(=O)CCN1CCN(C)CC1 ? Its inhibition was -6.21

So, c1ccc(Cn2c(CNc3nc4ccccc4n3CCN3CCOCC3)nc3ccccc32)cc1 ? Its inhibition was 10.7

So, CCCCN1CC(O)=C(c2nc3ccccc3[nH]2)C1=N ? Its inhibition was -10.6

So, CCOC(=O)c1csc(NC(=O)c2cc(=O)c3ccccc3o2)n1 ? Its inhibition was -0.69

So, COC(=O)C1C(=O)C2=C(CC1C)NC(C)=C(C(=O)OC(C)C)C2c1ccc(C)o1 (stereo not drawn) ? Its inhibition was 2.94

So, O=C(O)c1cc(N/N=C/c2ccc(-c3ccc(F)cc3)o2)ccc1Cl ? Its inhibition was 13.7

So, CCOc1ccc(C(=O)NC(C)(C)CC)cc1 ? Its inhibition was 26.1

So, Cc1cc(C)nc(-n2nc(C)cc2NC(=O)c2ccc(S(=O)(=O)N3CCOCC3)cc2)n1 ? Its inhibition was 9.62

So, CCOc1ccccc1N1CCN(CC(=O)Nc2cc(C)on2)CC1 ? Its inhibition was -0.33

So, CCCCOc1ccc(C(=O)Nc2ccc(N3CCN(C(=O)C(C)C)CC3)cc2)cc1 ? Its inhibition was 11.1

So, Clc1ccc(N2CCN(Cc3ccc(Br)o3)CC2)cc1 ? Its inhibition was 0.17

So, O=C(COC(=O)CCN1C(=O)c2ccccc2C1=O)Nc1ccccc1[N+](=O)[O-] ? Its inhibition was -0.89

So, N#CC1=C(N)Oc2n[nH]c(-c3cccs3)c2C1c1ccccc1C(=O)O (stereo not drawn) ? Its inhibition was -1.81

So, O=C(CSCc1cc(=O)n2nc(C3CC3)sc2n1)Nc1ccc(F)cc1 ? Its inhibition was -2.05

So, CC(C)C[C@]1(c2ccccc2)ON(c2ccccc2C(F)(F)F)C1=O ? Its inhibition was -1.86

So, CCOC(=O)c1sc(NC(=O)c2cc3ccccc3o2)nc1C ? Its inhibition was 3.64

So, Cc1nn(Cc2cccc(C(=O)Nn3cc([N+](=O)[O-])cn3)c2)c(C)c1[N+](=O)[O-] ? Its inhibition was 10.2

So, COC(=O)N/N=C/c1ccc([N+](=O)[O-])s1 ? Its inhibition was -5.28

So, Cc1ccc(NC(=O)CCSc2ccccn2)cc1 ? Its inhibition was -4.42

So, Cc1[nH]c2ccccc2c1C(=O)C(=O)N1CCN(c2cccc(Cl)c2)CC1 ? Its inhibition was 13.6

So, Cn1c(SCc2cccc(F)c2)nnc1-c1ccncc1 ? Its inhibition was -10.7

So, O=C(NCCC(=O)N1CCC2(CC1)NCCc1[nH]cnc12)c1cccc(C(F)(F)F)c1 ? Its inhibition was -1.8

So, CN(CCOc1ccc(Cl)cc1)C(=O)C1CCN(C(=O)c2ccc(F)cc2)CC1 ? Its inhibition was -0.37

So, CN1CCN(C(=O)CCN2C(=O)/C(=C/c3ccccc3Cl)SC2=S)CC1 ? Its inhibition was 49.8

So, O=C(CCN1C(=O)/C(=C/c2ccccc2Cl)SC1=S)N1CCOCC1 ? Its inhibition was 69

So, CC[C@]1(c2ccccc2C)ON(c2ccccc2C(F)(F)F)C1=O ? Its inhibition was 0.115

So, CCOC(=O)c1c(C)nc2sc(C(N)=O)c(N)c2c1-c1ccc(OC)cc1 ? Its inhibition was -6.87

So, O=c1c(Br)c(NCc2ccccc2)cnn1-c1ccc(F)cc1 ? Its inhibition was -5.73

So, O=C(Nc1ccccc1Br)c1cc[n+]([O-])cc1 ? Its inhibition was -2.42

So, CC(C)CNC(=S)N(CCN(C)C)Cc1cc2cc3c(cc2[nH]c1=O)OCCO3 ? Its inhibition was -7.36
